- Tested on: SNB-19 CNS
- testName: NCI-60 one-dose screen, 48 h (100 = growth as untreated, 0 = no growth, -100 = all killed)
- conditionDescription: 10 µM
This is part of a sample that, as a whole, favours compounds with a hit. Of some 83,000 tested, about 20% had one in any assay. Active and inactive are the calls of the source. Rule for the calls: active = growth percent below 10; inactive = the rest.
What growth was measured for each of the following?

For the compound shown here, COc1ccc(/C=C2/SC(=S)NC2=O)c(OC)c1OC , give the reported growth.
88.2% (inactive)

For the compound shown here, Cc1cc(CSc2ccccc2C(=O)N2CC=C(c3ccccc3)CC2)on1 , give the reported growth.
104% (inactive)

For the compound shown here, COc1ccc2c(c1)C(=O)/C(=C/c1cccc(OCC(=O)c3ccc([N+](=O)[O-])cc3)c1)CO2 , give the reported growth.
90.1% (inactive)

For the compound shown here, CC(C1=C(CN(C(=O)Cc2cn(-c3ccccc3)nc2-c2ccc(Cl)cc2)C(C)C)Cc2ccccc21)c1ccccn1 (stereo not given) , give the reported growth.
76.9% (inactive)

For the compound shown here, COc1cc2c3c(n([C@@H]4CCOC4)c(=O)c2cc1OC)-c1cc2c(cc1C3=O)OCO2 , give the reported growth.
30.1% (inactive)

For the compound shown here, S=C1N(c2ccccc2)CN(C2CCCCC2)CN1c1ccccc1 , give the reported growth.
95.3% (inactive)

For the compound shown here, COc1ccc(NC(=O)C2CC3C=CC2C3)c([N+](=O)[O-])c1 (stereo not given) , give the reported growth.
91.9% (inactive)

For the compound shown here, O=C1NC(=O)c2c(CCCSc3nc4ccccc4c(=O)n3CCc3ccccc3)cccc21 , give the reported growth.
94.8% (inactive)

For the compound shown here, CS(=O)(=O)c1nccc(-c2c(-c3cccc(OCc4ccccc4)c3)nc3sccn23)n1 , give the reported growth.
88.6% (inactive)

For the compound shown here, Cc1c[nH]c(=O)n(Cc2nnc(CCC(=O)c3nc4ccccc4[nH]3)o2)c1=O , give the reported growth.
33.2% (inactive)

###

- Test system: MDA-MB-435 melanoma
- testName: NCI-60 one-dose screen, 48 h (100 = growth as untreated, 0 = no growth, -100 = all killed)
- conditionDescription: 10 µM
- Description: Growth inhibition of the MDA-MB-435 human Melanoma tumor cell line is measured as a screen for anti-cancer activity. Cells are grown in 96 well plates and exposed to the test compound for 48 hours. Compounds are tested at a single concentration, which is 10^-5 M for most compounds. The reported endpoint is percent growth (GI% or GIPRCNT), where numbers from 0 - 100% represent growth inhibition, and numbers from -100% - 0 represent cell death. […]
The panel holds about 83,000 compounds, 20% with a hit somewhere; the sample as a whole holds those more often.
endpointLabel: growth (%)
The reply should contain only the number, in %.

For the molecule shown here, S=C(SSC(=S)N(c1ccccc1)c1ccccc1)N(c1ccccc1)c1ccccc1 , give the reported growth.
104

For the molecule shown here, O=C1/C(=C/c2ccc3c(c2)OCO3)SC(=S)N1C1c2ccccc2Oc2ccccc21 , give the reported growth.
96.5

For the molecule shown here, OCCn1cccn1 , give the reported growth.
102

For the molecule shown here, O=C(NCCCNS(=O)(=O)c1ccc(Cl)cc1)Nc1ccc(-n2cc(-c3ccncc3)c(-c3ccc(Cl)c(O)c3)n2)cc1 , give the reported growth.
28.4

For the molecule shown here, O=C(CN(C1CCCCC1)C1CCCCC1)Nc1ccc(S(=O)(=O)c2ccc(NC(=O)CN(C3CCCCC3)C3CCCCC3)cc2)cc1 , give the reported growth.
-39.5

For the molecule shown here, C1CN(CC2CCC(CN3CCOCC3)O2)CCO1 (stereo not given) , give the reported growth.
104

For the molecule shown here, O=C(O)c1ccc(-n2cc(CNc3ccc(Oc4ccccc4)cc3)c(-c3ccccc3)n2)cc1 , give the reported growth.
94.2

For the molecule shown here, COc1cc(C2CC(c3ccc4c(c3)OCO4)=NN2c2ccccc2)cc(OC)c1OC (stereo not given) , give the reported growth.
30.7

For the molecule shown here, COc1ccc2c(c1)OC(N)=C(C#N)C2c1cc(OC)c(OC)c(OC)c1 (stereo not given) , give the reported growth.
-16.7

For the molecule shown here, COc1ccc(C(=O)CSc2nc(-c3cc(OC)ccc3OC)cc(-c3ccc(OC)cc3)c2C#N)cc1 , give the reported growth.
100

For the molecule shown here, C/C=C/CSC(C)(C)C(=O)NC , give the reported growth.
106

For the molecule shown here, COc1ccc(C2=Cn3c(CCC(=O)c4nc5ccccc5[nH]4)nnc3SC2)cc1 , give the reported growth.
90.3

For the molecule shown here, COc1ccc(/C=C/c2nnc(/C=C/c3ccc(OC)c(OC)c3)o2)cc1OC , give the reported growth.
10.4

For the molecule shown here, CN(C)c1ccc(/C=N/NC(=O)c2ccccc2Nc2cccc(C(F)(F)F)c2)cc1 , give the reported growth.
92.3

For the molecule shown here, COc1ccc(C(=O)COc2cccc(/C=C3\Cc4ccccc4C3=O)c2)cc1 , give the reported growth.
58.8

For the molecule shown here, Nc1nc(-c2ccc(Cl)cc2)cc(-c2cc3ccccc3oc2=O)n1 , give the reported growth.
104

For the molecule shown here, O=C1c2ccccc2-c2c1c1cccnc1c(=O)n2C[C@H](O)CO , give the reported growth.
87.5

For the molecule shown here, O=C1CC(=O)N(C(=O)c2nn(-c3ccc(Cl)cc3)cc2O)N1 , give the reported growth.
48.1

For the molecule shown here, CSc1ccc(-c2cc(-c3ccc(NC(=O)CCCN4CCCC4)cc3)nc(-c3ccc(NC(=O)CCCN4CCCC4)cc3)c2)cc1 , give the reported growth.
79.7

For the molecule shown here, CC(C)(C)c1ccc(S(=O)(=O)N[C@H]2CC[C@H]3[C@@H]4CCc5cc(O)c([N+](=O)[O-])cc5[C@H]4CC[C@]23C)cc1 , give the reported growth.
80.3

###

- System: K-562 leukemia
- testName: NCI-60 one-dose screen, 48 h (100 = growth as untreated, 0 = no growth, -100 = all killed)
- conditionDescription: 10 µM
The panel holds about 83,000 compounds, 20% with a hit somewhere; the sample as a whole holds those more often.
# thresholds on growth define classes: bin 0: < 20%; bin 1: ≥ 20% and < 90%; bin 2: ≥ 90%

Which bin should I file COc1ccc(-c2nn(-c3cccc(Cl)c3)cc2-c2c(C#N)c(=O)n3[nH]c(-c4ccc(C)cc4)nc3c2C#N)cc1 under?
bin 0

Which bin should I file CCOC(=O)C1C(C(=O)OCC)C2C(=O)C3C(C(=O)OCC)C(C(=O)OCC)C3C(=O)C12 (stereo not given) under?
bin 2

Which bin should I file CC(CN(C)C)Oc1ccc(OC(C)CN(C)C)c2c1C(=O)c1ccccc1C2=O (stereo not given) under?
bin 1

Which bin should I file CC[C@H]1OC(=O)[C@H](C)[C@@H](O[C@H]2C[C@@](C)(OC)[C@@H](O)[C@H](C)O2)[C@H](C)[C@@H](O[C@@H]2O[C@H](C)C[C@H](N(C)C)[C@H]2O)[C@](C)(OC)C/C(C)=C2/O[C@@]1(C)C=C2C under?
bin 0

Which bin should I file COc1cc2cc(Oc3ccc(NC(=O)Nc4cccc(C(F)(F)F)c4)cc3)c(C)nc2cc1OC under?
bin 0

Which bin should I file COc1cc(C2CC(c3ccc4c(c3)OCO4)=NN2c2ccccc2)cc(OC)c1OC (stereo not given) under?
bin 1

Which bin should I file COCCn1cc(-c2nc(-c3cccnc3)cs2)c2cc(F)ccc21 under?
bin 2

Which bin should I file COc1cc(N)c2ncccc2c1SC under?
bin 2

Which bin should I file O=C(COc1cccc(/C=C2\CSc3ccc(Cl)cc3C2=O)c1)c1ccc(Cl)cc1 under?
bin 0

Which bin should I file CCOC(=O)C(C)(c1ccccc1)c1ccccc1 under?
bin 2

Which bin should I file CNC(=O)c1cc(Oc2ccc3c(c2)sc2nc(-c4ccc(N)cc4)cn23)ccn1 under?
bin 0

Which bin should I file O=C(N/N=C/c1ccc(Cl)cc1)c1ccccc1Nc1cccc(C(F)(F)F)c1 under?
bin 1

Which bin should I file COc1ccc2c(c1)C(=O)/C(=C/c1ncc([N+](=O)[O-])n1C)O2 under?
bin 0

Which bin should I file CC(C)(C)c1ccc(S(=O)(=O)Oc2ccc(NC(=O)C3CCCCC3)cc2)cc1 under?
bin 1

Which bin should I file CCOC(=O)c1sc2ncnc(Nc3ccc4c(cnn4C(=O)Nc4ccc(C)c(Cl)c4)c3)c2c1C under?
bin 2

Which bin should I file N#CC1=C(N)Oc2cc(N)ccc2C1c1cccnc1 (stereo not given) under?
bin 1

Which bin should I file COc1ccc(C(=O)N/N=C/c2cc(C(F)(F)F)ccc2Cl)cc1 under?
bin 2

Which bin should I file O=S(=O)(O)c1ccc(Cl)cc1 under?
bin 2

Which bin should I file CCn1c(SCCc2ccccc2)nnc1-c1nn(-c2ccc(Cl)cc2Cl)c(-c2ccc(Cl)cc2)c1C under?
bin 1

Which bin should I file Cc1ccc(C2NC(=S)N3C(c4ccc(C)cc4)NC(=S)N23)cc1 (stereo not given) under?
bin 0
